These data points were gathered from patent US20160257732A1.

Below is a list of entries, each paired with its recorded EC50 value.
- study target: recombinant HA (rHA), subtype H2 (A/Swine/MO/06 (H2N3)) (influenza A virus)
- measurement notes: ELISA, coated rHA
assay readout: EC50 (µg/mL)

binder	assay readout	numeric result
Antibody 10 (antibody, V domains shown) VH: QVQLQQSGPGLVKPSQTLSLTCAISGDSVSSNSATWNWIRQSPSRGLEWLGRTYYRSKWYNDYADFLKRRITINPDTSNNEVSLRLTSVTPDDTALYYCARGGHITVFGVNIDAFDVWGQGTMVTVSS VL: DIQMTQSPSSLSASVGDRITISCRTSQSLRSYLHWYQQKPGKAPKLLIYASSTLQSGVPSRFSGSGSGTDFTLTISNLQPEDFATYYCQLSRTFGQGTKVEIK	EC50	0.075
Antibody 6 (antibody, V domains shown) VH: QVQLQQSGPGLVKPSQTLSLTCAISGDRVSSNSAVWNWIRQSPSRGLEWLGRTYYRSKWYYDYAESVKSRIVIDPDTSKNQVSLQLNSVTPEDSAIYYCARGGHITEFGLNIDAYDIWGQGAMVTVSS VL: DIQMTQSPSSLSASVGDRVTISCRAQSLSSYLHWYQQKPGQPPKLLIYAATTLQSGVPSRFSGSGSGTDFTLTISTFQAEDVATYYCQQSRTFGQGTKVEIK	EC50	0.213
Antibody 5 (antibody, V domains shown) VH: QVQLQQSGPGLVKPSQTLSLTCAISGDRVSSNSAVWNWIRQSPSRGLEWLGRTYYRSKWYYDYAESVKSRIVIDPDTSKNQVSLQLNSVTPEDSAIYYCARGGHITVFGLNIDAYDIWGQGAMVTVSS VL: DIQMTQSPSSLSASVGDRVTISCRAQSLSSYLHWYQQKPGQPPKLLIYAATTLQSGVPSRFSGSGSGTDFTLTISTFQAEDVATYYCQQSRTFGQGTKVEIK	EC50	0.048
Antibody 8 (antibody, V domains shown) VH: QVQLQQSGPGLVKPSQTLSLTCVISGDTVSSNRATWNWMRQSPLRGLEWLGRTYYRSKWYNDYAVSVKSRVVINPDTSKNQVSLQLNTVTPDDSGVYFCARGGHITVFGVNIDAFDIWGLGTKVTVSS VL: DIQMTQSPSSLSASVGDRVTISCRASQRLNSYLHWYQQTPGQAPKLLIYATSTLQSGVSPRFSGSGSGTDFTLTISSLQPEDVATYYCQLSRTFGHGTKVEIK	EC50	0.058
